Cited source for all entries: ChEMBL document CHEMBL4513216

Test system: Plasmodium berghei
Assay: Screen against P. berghei liver stage (PbLuc), transformed with Luciferase, at 2uM
Format: functional, HepG2
Settings: tested at 2 uM
The whole screen tested about 68,000 compounds, of which about 2,700 (4%) showed an effect of 50% or more. The sample holds strong results, similar compounds and a random draw of the others, so the mix is not that of the screen.
Each record here notes measured INHIBITION.

compound | system tested | unit descriptor | INHIBITION
O=C(c1cccc(O)c1)N1CCN(Cc2nnc(C3CCC3)o2)CC1 | Plasmodium berghei | % | 1.41
CSc1ncc(CNC(C)c2cnn(-c3ccc(F)cc3F)c2C)cn1 (stereo unspecified) | Plasmodium berghei | % | -20.35
Cc1cccc(COC[C@H]2CC[C@H]3[C@H](CCN3Cc3ccco3)O2)n1 | Plasmodium berghei | % | -22.82
COc1ccc(COCC(O)CNC(=O)c2ccc(C)c(F)c2)cc1 (stereo unspecified) | Plasmodium berghei | % | -7.11
CC(=O)Nc1nc(C(=O)N2CCCC(n3nc(C)nc3C)C2)cs1 (stereo unspecified) | Plasmodium berghei | % | 9.17
O=C(CCN1CCOCC1)Nc1cccc(CNCc2ccsc2)c1 | Plasmodium berghei | % | 3.54
